Target: Oxysterols receptor LXR-beta (Homo sapiens, UniProt P55055)
Sequence (P55055 whole entry): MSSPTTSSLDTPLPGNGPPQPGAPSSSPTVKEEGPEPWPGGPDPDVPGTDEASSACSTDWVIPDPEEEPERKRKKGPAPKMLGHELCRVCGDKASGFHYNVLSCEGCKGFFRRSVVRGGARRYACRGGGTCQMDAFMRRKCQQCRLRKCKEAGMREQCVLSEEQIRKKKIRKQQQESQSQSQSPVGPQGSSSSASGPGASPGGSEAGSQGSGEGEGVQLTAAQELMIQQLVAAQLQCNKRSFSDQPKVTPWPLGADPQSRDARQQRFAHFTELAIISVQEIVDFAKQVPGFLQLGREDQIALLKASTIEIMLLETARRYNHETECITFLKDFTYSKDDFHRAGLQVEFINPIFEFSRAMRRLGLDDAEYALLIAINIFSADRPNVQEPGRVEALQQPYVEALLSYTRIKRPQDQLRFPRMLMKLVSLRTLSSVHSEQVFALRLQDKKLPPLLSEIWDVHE
Test: Effective concentration in recombinant human LXRbeta ligand binding domain in homogeneous time-resolved fluorescence assay
pEC50: −log10 of the molar value.
Reported Metric: pEC50

`C=CCOC(=O)[C@@]1(C)CCC[C@]2(C)c3cc(O)ccc3CC[C@@H]12` has a reported pEC50 of < 4.30
